I'd appreciate it if you could supply TGI values for the items below.
- Tested on: ACHN renal
- method: NCI tumour cell line growth inhibition, 48 h
Where a SMILES comes first, the peptide text is derived from it.

Example entries and their recorded answers appear below.
> print(dat)
                                   compound  readout.value
1  Cc1cc(Cl)ccc1Nc1nc(C(F)(F)F)ccc1C(=O)Nc1cccc(C(F)(F)F)c1        9.01 µM
2  S=C(Nc1cccc(C2(N3CCCCC3)CCCCC2)c1)Nc1cccc(C2(N3CCCCC3)CCCCC2)c1          54 µM
3                COC(=O)CCC1(O)C=CC(=O)C=C1       > 100 µM

Okay, here is my list. What is TGI for each of these?
1. CC1=C(C(=O)Nc2ccccc2C)C(c2ccccc2C)C(C(=O)Nc2ccccc2C)=C(C)N1
2. CC(=O)C1C(=O)C(=O)N(c2ccc(Br)cc2)C1=O (stereo unspecified)
3. Cc1ncc(CO)c(C=NCCCCCCN=Cc2c(CO)cnc(C)c2O)c1O

Response given:
29.5 µM
> 100 µM
> 100 µM

For every listed record, write down its TGI.
1. CC(=O)NC(CO)C(=O)NC(Cc1ccc(O)cc1)C(=O)NCC(N)=O (stereo not drawn) (Ac-Ser-Tyr-Gly-NH2; configuration not given here)
2. N#Cc1c(N2CCOCC2)ncn(-c2ccc(Cl)cc2)c1=O
3. O=c1oc2c(ccc3c(O)cccc32)c2c1CCCC2
4. Cc1cn2c(/C=C3/C(=O)Nc4ccccc43)c(C)nc2s1
5. CCOC(=O)/C(=N/Nc1ccc(Cl)cc1)N1C(=S)C=C(C)NN(C)C1=S
6. O=C(O)CN=c1c2ccccc2n(O)c2ccccc12
7. CNC(=O)c1cncc(/C=C/c2c(Cl)cccc2Cl)c1

Response given:
["> 100 µM", "> 100 µM", "> 100 µM", "> 100 µM", "> 100 µM", "> 100 µM", "> 25 µM"]

Hi! Can you tell me TGI for each of these compounds?
1. Cc1ccccc1NC(=O)CSc1nnc(Cc2ccccc2)o1
2. Cc1ccc([N+](=O)[O-])c2c(NCCC[N+](C)(C)[O-])ccnc12
3. CCc1n[nH]c(=S)n1/N=C\c1ccc(-c2ccccc2[N+](=O)[O-])o1

Response given:
1: > 100 µM; 2: > 100 µM; 3: > 100 µM

* * *

Task for the reader: assign each of the following compounds its reported TGI.
- Test system: CCRF-CEM leukemia
- method: NCI tumour cell line growth inhibition, 48 h

> print(dat)
                               compound  readout  readout.value
1  O=C1Nc2ccc(Br)cc2/C1=C/C(=O)c1ccccc1      TGI        8.36 µM
2      O=C(O)CN=c1c2ccccc2n(O)c2ccccc12      TGI        53.6 µM

Give measured TGI for every item shown.
1. NCCSC(C[N+](=O)[O-])c1ccccc1Cl (configuration not stated)
2. CCN1C(=O)CS/C1=N\NC(=O)CSc1nc2ccccc2c(=O)n1CC
3. COc1nc(OC)nc(Sc2ccc(Sc3ccc(Sc4nc(OC)nc(OC)n4)cc3)cc2)n1
4. Nc1nc(NCCOCP(=O)(O)O)c(N)c(=O)[nH]1
5. NCCC1([N+](=O)[O-])CCNCC1
6. COc1cc(/C=C\c2ccc(Cl)cc2)cc(OC)c1OC
7. NCCCCCNOCCCN
8. O=C(CC(=O)c1ccccc1)C(=O)NC12CC3CC(CC(C3)C1)C2

Response given:
1. > 86.7 µM
2. > 100 µM
3. > 100 µM
4. > 100 µM
5. > 100 µM
6. 3.96 µM
7. > 100 µM
8. > 80.4 µM

Give TGI for all compounds that follow.
1. CN(C)N=Nc1nn(C(=O)Nc2ccc(Cc3ccccc3)cc2)c2ccccc12
2. CC1CC(=O)c2c(ccc3c2C(=O)c2cccc(O)c2C3=O)C1 (configuration not stated)

Response given:
["> 100 µM", "7.97 µM"]

* * *

- System: MCF7 breast
- method: NCI tumour cell line growth inhibition, 48 h
readout: GI50

// solved cases for GI50 follow
> print(dat)
                                    compound  assayed.target  readout  readout.value
 1  CC1=NN(C(=O)c2nn(-c3ccc(Cl)cc3)cc2O)C(=O)C1     MCF7 breast     GI50        4.65 µM
 2  Nc1cc(-c2ccccc2)n(C(=O)Nc2ccc(Oc3ccccc3)cc2)n1     MCF7 breast     GI50        61.7 µM
 3      CNC(=O)c1cncc(/C=C/c2c(Cl)cccc2Cl)c1     MCF7 breast     GI50        > 25 µM
 4  CCCCN(CCCC)CCC(O)c1cc2ccc(C(F)(F)F)cc2c2cc(C(F)(F)F)ccc12 (configuration not stated)     MCF7 breast     GI50        1.62 µM
 5  O=C(NN1C(=O)CSC12CCC(c1ccccc1)CC2)c1[nH]c2ccc(F)cc2c1-c1ccccc1 (configuration not stated)     MCF7 breast     GI50        25.3 µM
 6  CCCC(CCC)C(=O)OCC1(CO)C/C(=C\c2ccc(C(F)(F)F)cc2)C(=O)O1 (configuration not stated)     MCF7 breast     GI50        17.4 µM
 7  COc1cc2nc(N3CCC[C@@H](NC4=CC(=O)c5ccccc5C4=O)C3)nc(N)c2cc1OC     MCF7 breast     GI50        1.71 µM
 8  O=C(Cn1c2ccccc2c2ccncc21)N/N=C\c1ccc2ccccc2c1     MCF7 breast     GI50        14.3 µM
 9  Cc1c(C(N)=O)sc2c1c(=O)n(Cc1ccccc1)c1nnc(S(=O)(=O)CC(=O)Nc3ccc(Cl)cc3)n21     MCF7 breast     GI50        4.76 µM
10  COc1cc2c(cc1OCCCCCn1c3ccccc3c3ccccc31)N=C[C@@H]1CCCN1C2=O     MCF7 breast     GI50        2.33 µM

# batch size: 2; output GI50 per entry
1. Cc1ccccc1NC(=O)c1cc2ccccc2cc1O
2. Cc1cc(Cl)ccc1Nc1nc(C(F)(F)F)ccc1C(=O)Nc1cccc(C(F)(F)F)c1

Response given:
1: 3.46 µM; 2: 2.28 µM

* * *

- Test system: K-562 leukemia
readout: GI50

// below: answered compounds
> print(dat)
                                   compound  readout.value
1  Cc1c(C(N)=O)sc2c1c(=O)n(Cc1ccccc1)c1nnc(S(=O)(=O)CC(=O)Nc3ccc(Cl)cc3)n21          15 µM
2             Nc1ccccc1C#C/C=C\C#Cc1ccccc1F        3.38 µM
3  Cc1ccc(S(=O)(=O)Nc2cc(Sc3ccccc3)c(O)c3ccccc23)cc1        3.38 µM

Quick one: give me GI50 for each item below, same order please.
1. NCCSC(C[N+](=O)[O-])c1ccccc1Cl (centres undefined)
2. Cn1ncnc1C1c2n[nH]c(=O)c3cc(F)cc(c23)NC1c1ccc(F)cc1 (centres undefined)
3. CN(CCCN(C)CCC1CCCCC1)CCC1CCCCC1
4. O=C(NN1C(=O)CSC12CCC(c1ccccc1)CC2)c1[nH]c2ccc(F)cc2c1-c1ccccc1 (centres undefined)
5. Nc1cc(-c2ccccc2)n(C(=O)Nc2ccc(Oc3ccccc3)cc2)n1
6. CN(C)N=Nc1nn(C(=O)Nc2ccc(Cc3ccccc3)cc2)c2ccccc12

Response given:
1: 2.96 µM; 2: > 100 µM; 3: 1.97 µM; 4: 23.7 µM; 5: > 100 µM; 6: 0.0373 µM

Report GI50 for each item below.
1. COC(=O)Nc1nc2ccc(S(=O)(=O)c3ccc(NC(=O)Nc4cc(C(F)(F)F)ccc4F)cc3)cc2[nH]1
2. CCC(=O)c1c(C(F)(F)F)n([O-])c2ccccc2[n+]1=O
3. O=C1COCCN1c1ccc(NCc2cn(C(=O)c3ccc(Cl)cc3)c3ccccc23)cc1
4. CN(C)c1ncnc2c1ccn2C1OC(CO)C(O)C1O (centres undefined)
5. CNc1ncc2cc(Oc3ccc(F)cc3F)c(=O)n(C)c2n1

Response given:
["> 25 µM", "1.35 µM", "1.84 µM", "1.4 µM", "> 25 µM"]

* * *

- Test system: HOP-62 NSCLC
- method: NCI tumour cell line growth inhibition, 48 h
Please go through the items and note down their TGI.

Below, 8 compounds whose answers are already recorded.
compound	TGI
O=[N+]([O-])c1cc2c(ccc3occc32)o1	21.5 µM
COC(=O)CNCC1OC2OC(C)(C)OC2C1N=[N+]=[N-] (stereo not drawn)	> 100 µM
Cc1cn2c(/C=C3/C(=O)Nc4ccccc43)c(C)nc2s1	> 100 µM
COc1nc(C)nc2c1ncn2Cc1ccccc1	> 100 µM
CC(=O)O/N=C/c1cc2c(cc1Br)OCO2	> 349 µM
CNc1ncnc2c1cnn2Cc1cn(CCCCO)nn1	> 100 µM
c1ccc(CSC(SCc2ccccc2)c2ccc3c(c2)OCO3)cc1	> 10 µM
Cc1ccccc1NC(=O)CSc1nnc(Cc2ccccc2)o1	> 100 µM

Dear colleague, could you please provide TGI for the compounds listed below?
1. CCOC(=O)c1cn(CC)c2cc3c(cc2c1=O)SCS3
2. COc1cc(Cc2ccc3c(c2C#N)N(C)c2ccccc2S3)cc(OC)c1OC
3. Cc1nc(N(CCO)CCO)c2sc(=S)n(-c3ccccc3)c2n1
4. NC(=O)N/N=C(\CCC(=O)N(Cc1ccccc1)Cc1ccccc1)CC(=O)c1ccc(F)cc1
5. Cn1c(=O)sc2cc(C(=S)N3CCN(c4ccccc4)CC3)ccc21
6. Cn1c2ccccc2c2[nH]c3ccccc3c(=O)c21

Response given:
["> 100 µM", "> 100 µM", "> 100 µM", "> 100 µM", "42.8 µM", "> 100 µM"]

Below are some compounds; for each one, tell me its TGI.
1. COc1ccc(/C=N\O[Si](C)(C)C(C)(C)C)cc1O[Si](C)(C)C(C)(C)C
2. O=C1Nc2ccc(Br)cc2/C1=C/C(=O)c1ccccc1

Response given:
1. 36 µM
2. 61.2 µM

Values were extracted from PubChem BioAssay (NCI).
